Attribution: paper PMC3340893

# target.under.test: EcIspE (Escherichia coli, UniProt P62615)
# Construct: made in house
# Sequence (P62615 whole entry): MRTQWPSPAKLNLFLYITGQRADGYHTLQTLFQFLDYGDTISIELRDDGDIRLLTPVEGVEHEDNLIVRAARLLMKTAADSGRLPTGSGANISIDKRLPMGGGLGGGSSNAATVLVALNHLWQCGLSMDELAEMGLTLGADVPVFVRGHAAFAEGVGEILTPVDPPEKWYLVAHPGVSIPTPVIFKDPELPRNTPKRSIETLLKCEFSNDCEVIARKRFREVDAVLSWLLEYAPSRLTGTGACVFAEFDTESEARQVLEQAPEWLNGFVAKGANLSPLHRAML
# assay: IspE inhibition assay (Promega Kinase-Glo Plus), IC50 determination
# Type: biochemical
# Protocol: Inhibition of EcIspE was measured using the Promega Kinase-Glo®-Plus kit. This kit determines the remaining ATP concentration after the kinase reaction took place by converting luciferin to oxyluciferin via an ATP-dependent luciferase. Oxyluciferin is chemoluminescent and can be detected using a plate reader. […] As the assay was performed at relatively high substrate concentrations (∼3×K M) for ligand efficiency calculations, the measured IC50 values were first converted to K i values. […]
assay.readout: pIC50
Scale note: pIC50 = -log10(concentration in M).

| compound | pIC50 |
| --- | --- |
| O=c1c2ccccc2nc(-c2cccnc2)n1-c1ccc(Br)cn1 [Compound 8] | 5.60 |

// next entry
pIC50 measured on C1=C(c2c[nH]c3ncccc23)CCNC1 [Compound 4] = 2.82

###

# target.under.test: EcIspE (Escherichia coli, UniProt P62615)
# Construct: made in house
# assay: IspE inhibition assay (Promega Kinase-Glo Plus), IC50 determination
# Type: biochemical
# condition.info: average of three independent measurements, SD in brackets; 90 µM ATP, 500 µM CDP-ME, 200 nM EcIspE, pH 8.5; n.i. = no inhibition at solubility limit measured; read-out: IC50 [M] (SD)
assay.readout: IC50 (M)
Just the number in M, nothing appended.

| compound | IC50 [M] |
| --- | --- |
| COc1ccc(-n2c(-c3cccnc3)nc3ccccc3c2=O)cc1 [Compound 21] | 2.7e-05 |
| CN1CC=C(c2c(C3CC3)[nH]c3ncccc23)CC1 [Compound 14] | 0.0087 |
| Cc1[nH]c2ccccc2c1C(Nc1cccc(Cl)c1)c1ccccn1 (stereo not drawn) [Compound 20] | 0.0025 |
| c1csc(NC2CCCCC2)n1 [Compound 9] | 0.0094 |
| C1=C(c2c[nH]c3ncccc23)CCN(c2ncccn2)C1 [Compound 13] | 0.00047 |
| CC(C)Nc1nccs1 [Compound 11] | 0.002 |
| Oc1ccccc1CNc1nccs1 [Compound 10] | 0.0066 |
| CNC(=S)N1CC=C(c2c[nH]c3ncccc23)CC1 [Compound 12] | 0.00083 |
| CNc1ncc(Br)nc1N [Compound 2] | 0.00059 |
| COc1ccc(-n2c(-c3ccncc3)nc3ccccc3c2=O)cc1 [Compound 23] | 0.00032 |

Entry Nc1nc(N)c2[nH]c(=O)[nH]c2n1 [Compound 5] , EcIspE (Escherichia coli, UniProt P62615) data, IC50 value: 0.0023

Reported IC50 (EcIspE (Escherichia coli, UniProt P62615)) for entry Cc1[nH]c2ccccc2c1C(Nc1ccccn1)c1ccccc1Cl (stereo not drawn) [Compound 19] is 0.0024

The reported EcIspE (Escherichia coli, UniProt P62615) IC50 of Nc1n[nH]c(NCc2cccnc2)n1 [Compound 1] is 0.0018

Lab note: compound O=c1c2ccccc2nc(-c2ccccn2)n1-c1ccccc1 [Compound 22] tested on EcIspE (Escherichia coli, UniProt P62615); recorded IC50 was 0.00018

GET /values?item= Nc1cc(-c2ccco2)[nH]n1 [Compound 6] &system= EcIspE (Escherichia coli, UniProt P62615) returns IC50: 0.0035

###

# target.under.test: EcIspE (Escherichia coli)
# Construct: made in house
# assay: IspE inhibition assay (Promega Kinase-Glo Plus), IC50 determination
# Format: biochemical
# condition.info: from IC50 converted to Ki assuming competitive inhibition of the cytidine binding site; KM 150 µM, [CDP-ME] 500 µM, T = 298 K
# Description: Inhibition of EcIspE was measured using the Promega Kinase-Glo®-Plus kit. This kit determines the remaining ATP concentration after the kinase reaction took place by converting luciferin to oxyluciferin via an ATP-dependent luciferase. Oxyluciferin is chemoluminescent and can be detected using a plate reader. […] As the assay was performed at relatively high substrate concentrations (∼3×K M) for ligand efficiency calculations, the measured IC50 values were first converted to K i values. […]
Each record here notes measured Ligand efficiency.

| compound | target.under.test | Ligand efficiency |
| --- | --- | --- |
| Cc1[nH]c2ccccc2c1C(Nc1ccccn1)c1ccccc1O (centres unmarked) [Compound 7] | EcIspE (Escherichia coli) | 0.29 kcal/mol per non-hydrogen atom |
| c1csc(NC2CCCCC2)n1 [Compound 9] | EcIspE (Escherichia coli) | 0.30 kcal/mol per non-hydrogen atom |
| O=c1c2ccccc2nc(-c2ccccn2)n1-c1ccccc1 [Compound 22] | EcIspE (Escherichia coli) | 0.26 kcal/mol per non-hydrogen atom |
| C1=C(c2c[nH]c3ncccc23)CCN(c2ncccn2)C1 [Compound 13] | EcIspE (Escherichia coli) | 0.26 kcal/mol per non-hydrogen atom |

Reported Ligand efficiency of COc1ccc(-n2c(-c3ccncc3)nc3ccccc3c2=O)cc1 [Compound 23] : 0.23 kcal/mol per non-hydrogen atom

Recorded result, O=c1c2ccccc2nc(-c2cccnc2)n1-c1ccc(Br)cn1 [Compound 8] , Ligand efficiency: 0.35 kcal/mol per non-hydrogen atom

The recorded Ligand efficiency for entry Cc1[nH]c2ccccc2c1C(Nc1ccccn1)c1cccc(Cl)c1 (centres unmarked) [Compound 18] equals 0.21 kcal/mol per non-hydrogen atom

Value of measured Ligand efficiency for the entry Oc1ccccc1CNc1nccs1 [Compound 10] : 0.27 kcal/mol per non-hydrogen atom

Consider Nc1cc(-c2ccco2)[nH]n1 [Compound 6] . Its measured Ligand efficiency is 0.28 kcal/mol per non-hydrogen atom

GET /value?item= CC(C)Nc1nccs1 [Compound 11] &field=Ligand efficiency returns 0.50 kcal/mol per non-hydrogen atom

The recorded Ligand efficiency for Cc1[nH]c2ccccc2c1C(Nc1cccc(Cl)c1)c1ccccn1 (centres unmarked) [Compound 20] is 0.18 kcal/mol per non-hydrogen atom

Lab note: Nc1nc(N)c2[nH]c(=O)[nH]c2n1 [Compound 5] gave Ligand efficiency of 0.37 kcal/mol per non-hydrogen atom

Looking up Oc1csc(Nc2nccs2)n1 [Compound 3] , I see its Ligand efficiency listed as 0.50 kcal/mol per non-hydrogen atom

Consider C1=C(c2c[nH]c3ncccc23)CCNC1 [Compound 4] . Its measured Ligand efficiency is 0.32 kcal/mol per non-hydrogen atom

Lab book: Ligand efficiency of CN1CC=C(c2c(C3CC3)[nH]c3ncccc23)CC1 [Compound 14] noted as 0.19 kcal/mol per non-hydrogen atom

###

Ligand efficiency overview
# target.under.test: EcIspE (Escherichia coli)
# Construct: made in house
# assay: IspE inhibition assay (Promega Kinase-Glo Plus), IC50 determination
# Format: biochemical
# condition.info: from IC50 converted to Ki assuming competitive inhibition of the cytidine binding site; KM 150 µM, [CDP-ME] 500 µM, T = 298 K
# Procedure: Inhibition of EcIspE was measured using the Promega Kinase-Glo®-Plus kit. This kit determines the remaining ATP concentration after the kinase reaction took place by converting luciferin to oxyluciferin via an ATP-dependent luciferase. Oxyluciferin is chemoluminescent and can be detected using a plate reader. […] As the assay was performed at relatively high substrate concentrations (∼3×K M) for ligand efficiency calculations, the measured IC50 values were first converted to K i values. […]

Solved cases (3 shown):
| compound | target.under.test | Ligand efficiency |
| --- | --- | --- |
| Nc1n[nH]c(NCc2cccnc2)n1 | EcIspE (Escherichia coli) | 0.33 kcal/mol per non-hydrogen atom |
| COc1ccc(-n2c(-c3cccnc3)nc3ccccc3c2=O)cc1 | EcIspE (Escherichia coli) | 0.28 kcal/mol per non-hydrogen atom |
| CNC(=S)N1CC=C(c2c[nH]c3ncccc23)CC1 | EcIspE (Escherichia coli) | 0.27 kcal/mol per non-hydrogen atom |

// assay EcIspE (Escherichia coli), entry CNc1ncc(Br)nc1N , Ligand efficiency value = 0.53 kcal/mol per non-hydrogen atom

Record Cc1[nH]c2ccccc2c1C(Nc1ccccn1)c1ccccc1Cl (centres unmarked) ; system EcIspE (Escherichia coli); Ligand efficiency = 0.18 kcal/mol per non-hydrogen atom
